measurement.description: Inhibition of His-tagged SUMO1/SUMO E1 /GST-tagged Aos1/Uba2/His-tagged Ubc9 (unknown origin)-mediated recombinant His/T7-tagged RanGAP1-C-terminal fragment SUMOylation assessed as change in chemical shift perturbation by 1H,15N HSQC NMR spectroscopy analysis
Parameters: species or system Homo sapiens
endpoint.label: IC50 (mM)
Numbers only, in mM.

- cpd.smiles: "Oc1ccccc1-c1ccccc1O"
  endpoint.label: "IC50"
  recorded.value: 5.8

Now examine the next entry.
`CCOC(=O)CCc1ccc(-c2ccccc2O)c(O)c1` yielded IC50 of 3

----------
measurement.description: Inhibition of His-tagged SUMO1/SUMO E1 /His-tagged Ubc9 (unknown origin)-mediated […] SUMOylation using FL-AR as substrate incubated for 90 mins in presence of ATP by peptide microarray-based fluorescence assay
Design: species or system Homo sapiens
endpoint.label: pIC50
Answers are plain numbers, as −log10 of the molar value.

`c1coc(-c2cc(CNc3ncnc4sc5cnccc5c34)no2)c1` yielded pIC50 of 4.13
